# System: HCT-116 MTAP wild-type cells
# EXPERIMENT NOTES: Inhibition of proliferation of HCT-116 MTAP wild-type cells (Cell-Titer Glo)
# Assay type: cell-based
# CONDITION SUMMARY: Homo sapiens, HCT-116, 192 h, 8 days
MEASUREMENT TYPE: IC50

CN(C(=O)c1ccc2nc(N)c3cnc(C4CC4)n3c2c1)[C@@H]1COc2cc(C(F)(F)F)ccc21 = > 10000 nM
CN(C(=O)c1ccc2nc(N)c3cncn3c2c1)C1COc2ccccc21 (stereo not shown) = > 10000 nM
CN(C(=O)c1cc2c(cc1F)nc(N)c1cncn12)[C@@H]1CCOc2cc(-c3ccnn3C)ccc21 = > 10000 nM
Nc1nc2ncc(C(=O)N(C3CC3)C3COc4cc(C(F)(F)F)ccc43)cc2n2cncc12 (stereo not shown) = > 20000 nM
CN(C(=O)c1ccc2nc(N)c3cncn3c2c1)[C@@H]1COc2cc(C(F)F)ccc21 = > 10000 nM

Query: What does the record list as IC50 for CN(C(=O)c1ccc2nc(N)c3cncn3c2c1)[C@@H]1COc2cc(N)ccc21 ?
Result: > 10000 nM

Query: What does the record list as IC50 for CN(C(=O)c1ccc2nc(N)c3nncn3c2c1)[C@@H]1COc2cc(C(F)(F)F)ccc21 ?
Result: > 3000 nM

Query: What does the record list as IC50 for CN(C(=O)c1cc2c(cc1F)nc(N)c1cncn12)[C@@H]1CCOc2cc(-c3cnn(C)c3)ccc21 ?
Result: > 10000 nM

Query: What does the record list as IC50 for COC(=O)c1ccc2c(c1)OC[C@H]2N(C)C(=O)c1ccc2nc(N)c3cncn3c2c1 ?
Result: > 10000 nM

Query: What does the record list as IC50 for CN(C(=O)c1cc2c(cn1)nc(N)c1cncn12)[C@@H]1COc2cc(C(F)(F)F)ncc21 ?
Result: > 10000 nM

Query: What does the record list as IC50 for C[C@@H]1OC[C@@H](N(C)C(=O)c2ccc3nc(N)c4cncn4c3c2)c2ccc(F)cc21 (single isomer, unassigned) ?
Result: > 10000 nM

Query: What does the record list as IC50 for CN(C(=O)c1cc2c(cn1)nc(N)c1cncn12)[C@@H]1CCc2cc(C(F)(F)F)ncc21 ?
Result: > 10000 nM

Query: What does the record list as IC50 for CN(C(=O)c1ccc2nc(N)c3cncn3c2c1)[C@@H]1COc2cc(S(C)(=O)=O)ccc21 ?
Result: > 10000 nM

* * *

Quick list: IC50 per entry.
# Tested on: HCT-116 MTAP wild-type cells
# EXPERIMENT NOTES: Inhibition of proliferation of HCT-116 MTAP wild-type cells (Cell-Titer Glo)
# Assay type: cell-based
# CONDITION SUMMARY: Homo sapiens, HCT-116, 192 h, 8 days

Query: What does the record list as IC50 for CN(C(=O)c1ccc2nc(N)c3c(C(N)=O)ncn3c2c1)[C@@H]1COc2cc(C(F)(F)F)ccc21 [Example 132] ?
Result: > 10000 nM

Query: What does the record list as IC50 for CN(C(=O)c1ccc2nc(N)c3cncn3c2c1)[C@@H]1COc2cc(CF)ccc21 [Example 52] ?
Result: > 10000 nM

Query: What does the record list as IC50 for CN(C(=O)c1ccc2nc(N)c3cncn3c2c1)C1COc2nc(C(F)(F)F)ccc21 (stereo not drawn) [Example 7] ?
Result: > 10000 nM
